Each record here notes measured % relative AhR nuclei.
Test Target: AhR (Homo sapiens, UniProt P35869)
Sequence (P35869 11-848): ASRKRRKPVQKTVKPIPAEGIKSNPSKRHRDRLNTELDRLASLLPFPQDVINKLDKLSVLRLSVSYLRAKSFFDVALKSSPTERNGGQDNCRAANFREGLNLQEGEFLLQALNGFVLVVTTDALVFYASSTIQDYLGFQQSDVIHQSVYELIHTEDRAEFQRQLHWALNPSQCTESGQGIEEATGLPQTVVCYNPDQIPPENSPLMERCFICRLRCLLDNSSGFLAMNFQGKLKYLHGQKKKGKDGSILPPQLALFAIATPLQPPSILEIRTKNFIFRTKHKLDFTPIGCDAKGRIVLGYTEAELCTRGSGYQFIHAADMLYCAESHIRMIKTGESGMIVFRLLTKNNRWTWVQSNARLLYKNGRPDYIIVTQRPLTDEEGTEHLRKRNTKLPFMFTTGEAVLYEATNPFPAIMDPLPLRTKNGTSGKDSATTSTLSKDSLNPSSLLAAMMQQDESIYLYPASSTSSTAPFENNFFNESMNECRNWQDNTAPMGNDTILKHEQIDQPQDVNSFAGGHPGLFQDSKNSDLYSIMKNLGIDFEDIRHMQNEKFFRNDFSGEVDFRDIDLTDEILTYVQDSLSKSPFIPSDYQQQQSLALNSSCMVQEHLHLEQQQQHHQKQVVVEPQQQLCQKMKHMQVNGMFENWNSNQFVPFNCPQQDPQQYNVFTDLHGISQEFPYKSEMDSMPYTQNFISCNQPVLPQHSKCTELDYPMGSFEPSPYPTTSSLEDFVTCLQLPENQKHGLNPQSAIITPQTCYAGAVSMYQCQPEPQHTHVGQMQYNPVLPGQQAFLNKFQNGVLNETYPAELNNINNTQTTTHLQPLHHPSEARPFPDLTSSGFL
Test: Immunofluorescence detection of nuclear translocation of the AhR in LS180 cells
Type: cell-based
Parameters: 0.1% V/V), TCDD (10 nM), and test MICT; host or cells: LS180 cells
Run Parameters: relative to TCDD-treated cells; LS180, 90 min, exp 1; same concentrations
Protocol: Figure 5 Effect of MICT on nuclear translocation of the AhR. LS180 cells were incubated for 90 min with vehicle (DMSO; 0.1% V/V), TCDD (10 nM), and test MICT. The experiments were performed in three consecutive cell passages with all tested compounds in duplication. Fluorescence images depict sub-cellular localization of AhR (upper panels) and nuclear staining by DAPI (lower panels). Representative micrographs are shown. […] Suppl. […] Nuclear translocation of AhR – quantification of immunofluorescence. […]

Compound | % relative AhR nuclei (%)
O=C(O)/C=C/c1c[nH]c2ccccc12 [IAC, indole-3-acrylate] | 94
Cc1c[nH]c2ccccc12 | 120
O=C(O)C(=O)Cc1c[nH]c2ccccc12 [IPY, indole-3-pyruvate] | 78
NCCc1c[nH]c2ccccc12 | 81
NC(=O)Cc1c[nH]c2ccccc12 [IAD, indole-3-acetamide] | 85

###

Test Target: AhR (Homo sapiens)
Sequence (P35869 11-848): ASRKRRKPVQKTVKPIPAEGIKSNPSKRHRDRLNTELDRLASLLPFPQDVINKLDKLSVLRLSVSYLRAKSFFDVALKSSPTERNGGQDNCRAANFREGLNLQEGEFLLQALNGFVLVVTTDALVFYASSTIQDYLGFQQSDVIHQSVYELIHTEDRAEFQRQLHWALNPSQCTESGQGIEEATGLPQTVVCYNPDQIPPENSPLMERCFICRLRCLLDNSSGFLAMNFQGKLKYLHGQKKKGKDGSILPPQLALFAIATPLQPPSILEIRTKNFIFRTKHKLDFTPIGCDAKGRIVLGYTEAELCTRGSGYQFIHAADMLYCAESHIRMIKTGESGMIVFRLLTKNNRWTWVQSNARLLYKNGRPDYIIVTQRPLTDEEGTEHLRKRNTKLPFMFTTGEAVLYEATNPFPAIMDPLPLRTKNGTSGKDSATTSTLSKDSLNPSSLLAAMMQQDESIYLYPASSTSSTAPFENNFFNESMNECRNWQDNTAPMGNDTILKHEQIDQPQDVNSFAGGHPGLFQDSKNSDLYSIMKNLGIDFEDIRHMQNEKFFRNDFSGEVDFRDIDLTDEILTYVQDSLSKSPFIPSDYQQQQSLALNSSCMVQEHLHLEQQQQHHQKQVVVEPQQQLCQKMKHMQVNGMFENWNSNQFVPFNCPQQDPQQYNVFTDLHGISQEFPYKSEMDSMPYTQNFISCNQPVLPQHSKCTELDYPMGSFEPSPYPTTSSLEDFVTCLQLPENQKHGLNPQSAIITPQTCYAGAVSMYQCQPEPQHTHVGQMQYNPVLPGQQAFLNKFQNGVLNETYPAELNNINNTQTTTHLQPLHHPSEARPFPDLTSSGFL
Test: Immunofluorescence detection of nuclear translocation of the AhR in LS180 cells
Assay type: cell-based
Design: 0.1% V/V), TCDD (10 nM), and test MICT; host or cells: LS180 cells
Run Parameters: LS180, 90 min, exp 1; TCDD 10 nM, Indole 1 mM, IAC 100 µM, others 200 µM
Each record here notes measured % positive AhR nuclei.

Compound | % positive AhR nuclei [%]
Cc1c[nH]c2ccccc12 | 65
O=C(O)C(=O)Cc1c[nH]c2ccccc12 [IPY, indole-3-pyruvate] | 42
Clc1cc2c(cc1Cl)Oc1cc(Cl)c(Cl)cc1O2 [TCDD, 2,3,7,8-tetrachlorodibenzo-p-dioxin, reference compound] | 54
NC(=O)Cc1c[nH]c2ccccc12 [IAD, indole-3-acetamide] | 46
O=C(O)/C=C/c1c[nH]c2ccccc12 [IAC, indole-3-acrylate] | 51
NCCc1c[nH]c2ccccc12 | 44
